# Test system: MKN-45
# test_method_notes: Antiproliferative activity against human MKN45 cells at 1 uM after 72 hrs by Cell Titer-Glo assay
# Type: functional
measure: Activity

# count of solved cases: 5
test_smiles	test_result
COc1ccc(Cc2nnc3sc(-c4cc5ccccc5[nH]4)nn23)cc1	78.1%
COCCn1ccc(-c2nn3c(COc4ccnc5cc(OC)ccc45)nnc3s2)c1	71.1%
COc1ccc2c(OCc3nnc4sc(-c5ccn(CC6CC6)c5)nn34)ccnc2c1	41.1%
COc1ccc2c(OCc3nnc4sc(-c5cc[nH]c5)nn34)ccnc2c1	71.1%
C[C@@H](Oc1cc(-c2cnn(C3CCNCC3)c2)cnc1N)c1c(Cl)ccc(F)c1Cl	82.6%

Qu. Entry under review: COc1ccc2c(OCc3nnc4sc(-c5cnn(C)c5)nn34)ccnc2c1 . Reported Activity?
Ans. 73.6%

Qu. What value of measured Activity is listed for COc1ccc2c(OCc3nnc4sc(-c5ccc[nH]5)nn34)ccnc2c1 ?
Ans. 79.3%

Qu. Consider the molecule COc1ccc2c(OCc3nnc4sc(-c5cccc(F)c5)nn34)ccnc2c1 and give its measured Activity.
Ans. 13.2%

Qu. Which value of Activity has been reported for COc1cccc(-c2nn3c(COc4ccnc5cc(OC)ccc45)nnc3s2)c1 in the records?
Ans. 37.8%

Qu. Requested field: Activity. Item: COc1ccc2c(OCc3nnc4sc(-c5ccncc5)nn34)ccnc2c1
Ans. 73.8%

Qu. Which Activity value is on record for COc1ccc2c(OCc3nnc4sc(-c5cc6ccccc6n5C)nn34)ccnc2c1 ?
Ans. 60.8%

Qu. What Activity value was documented for this molecule, COc1ccc2c(OCc3nnc4sc(-c5ccc(F)cc5)nn34)ccnc2c1 ?
Ans. 68.5%

Qu. Consider the molecule COc1ccc2[nH]c(-c3nn4c(COc5ccnc6cc(OC)ccc56)nnc4s3)cc2c1 and give its measured Activity.
Ans. 75.3%

Qu. Item under review: COc1ccc(-c2nn3c(COc4ccnc5cc(OC)ccc45)nnc3s2)cc1 . Reported Activity?
Ans. 76.4%

---

Parameter 'readout' = IC50; parameter 'system' = Hepatocyte growth factor receptor (Homo sapiens).
Sequence (P08581 whole entry): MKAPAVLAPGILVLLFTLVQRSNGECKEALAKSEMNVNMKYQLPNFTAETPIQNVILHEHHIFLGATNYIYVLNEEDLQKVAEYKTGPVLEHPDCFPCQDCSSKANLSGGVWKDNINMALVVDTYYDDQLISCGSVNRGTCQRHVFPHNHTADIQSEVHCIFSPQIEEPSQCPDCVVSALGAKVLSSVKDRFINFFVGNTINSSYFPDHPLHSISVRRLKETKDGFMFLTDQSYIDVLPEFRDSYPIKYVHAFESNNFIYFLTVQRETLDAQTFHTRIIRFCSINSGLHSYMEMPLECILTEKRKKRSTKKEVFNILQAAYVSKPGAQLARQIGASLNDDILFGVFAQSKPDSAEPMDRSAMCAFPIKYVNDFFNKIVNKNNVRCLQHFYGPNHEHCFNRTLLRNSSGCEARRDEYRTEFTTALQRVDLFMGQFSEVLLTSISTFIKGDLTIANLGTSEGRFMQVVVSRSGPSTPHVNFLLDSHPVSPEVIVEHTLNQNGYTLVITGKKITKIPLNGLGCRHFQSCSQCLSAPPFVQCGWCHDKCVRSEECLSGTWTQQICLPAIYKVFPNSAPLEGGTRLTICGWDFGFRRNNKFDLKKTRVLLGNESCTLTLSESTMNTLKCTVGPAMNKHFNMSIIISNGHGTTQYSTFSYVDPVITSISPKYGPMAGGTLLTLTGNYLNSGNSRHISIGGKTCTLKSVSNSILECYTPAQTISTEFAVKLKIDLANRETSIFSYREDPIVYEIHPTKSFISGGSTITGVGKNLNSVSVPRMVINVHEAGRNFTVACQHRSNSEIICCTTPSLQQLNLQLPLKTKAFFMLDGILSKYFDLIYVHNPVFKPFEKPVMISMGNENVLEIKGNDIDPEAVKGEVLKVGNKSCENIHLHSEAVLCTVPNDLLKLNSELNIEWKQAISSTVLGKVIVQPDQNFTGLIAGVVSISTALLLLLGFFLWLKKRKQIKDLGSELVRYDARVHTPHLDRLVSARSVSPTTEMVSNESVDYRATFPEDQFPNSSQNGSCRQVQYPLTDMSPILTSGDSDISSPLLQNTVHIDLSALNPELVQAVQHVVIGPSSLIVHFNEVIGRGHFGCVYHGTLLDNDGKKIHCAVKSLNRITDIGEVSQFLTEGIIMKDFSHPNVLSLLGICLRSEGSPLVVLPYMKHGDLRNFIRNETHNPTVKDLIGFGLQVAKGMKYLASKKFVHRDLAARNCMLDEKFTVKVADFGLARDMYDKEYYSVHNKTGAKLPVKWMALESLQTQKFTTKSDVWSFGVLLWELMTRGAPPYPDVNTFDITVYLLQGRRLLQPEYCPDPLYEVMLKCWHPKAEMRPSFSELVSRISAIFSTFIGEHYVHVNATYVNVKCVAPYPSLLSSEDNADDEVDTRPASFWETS

Guide cases for IC50, answers given:
test_smiles	IC50
Cn1cc(-c2nn3c(Cc4ccc(OCCN5CCOCC5)cc4)nnc3s2)cn1	> 10 µM
COc1ccc2c(OCc3nnc4sc(-c5cnn(C)c5)nn34)ccnc2c1	0.00202 µM
O=C(Oc1ccc(Cc2nnc3sc(-c4cc5ccccc5[nH]4)nn23)cc1)c1cc2ccccc2[nH]1	> 10 µM

Turning now to a further record.
Qu. # value lookup — system Hepatocyte growth factor receptor (Homo sapiens), readout IC50, item CNC(=O)COc1ccc(Cc2nnc3sc(-c4cnn(C)c4)nn23)cc1
Ans. > 10 µM
